System: ANKA strain of P. berghei
Test: Single dose STI in vivo screen in infected mice
Set-up: species or system Plasmodium berghei
Settings: single 10 mg/kg po in SSV; untreated 6-7 days
recordedMetric: Survival (days) 10 mg/kg SSV po

molecule	system	observedResult
O=C1c2ccccc2C(=O)N1C[C@H]1CC[C@]2(CC1)OOC1(O2)C2CC3CC(C2)CC1C3 (some centres unmarked) [OZ146]	ANKA strain of P. berghei	6.3
CC(C)(C)CC(=O)N1CCC2(CC1)OOC1(O2)C2CC3CC(C2)CC1C3 (centres unmarked) [OZ111]	ANKA strain of P. berghei	6.3
O=C(O)CCC[C@H]1CC[C@]2(CC1)OOC1(O2)C2CC3CC(C2)CC1C3 (some centres unmarked) [OZ261]	ANKA strain of P. berghei	7.0
Cn1ccnc1S(=O)(=O)C[C@H]1CC[C@]2(CC1)OO[C@]1(O2)C2CC3CC(C2)CC1C3 [OZ310]	ANKA strain of P. berghei	7.8
O=C(CNC(=O)c1cccnc1)NC[C@H]1CC[C@]2(CC1)OO[C@]1(O2)C2CC3CC(C2)CC1C3 [OZ316]	ANKA strain of P. berghei	10.0
O=C1c2ccccc2C(=O)N1C[C@H]1CC[C@@]2(CC1)OOC1(O2)C2CC3CC(C2)CC1C3 (some centres unmarked) [OZ167]	ANKA strain of P. berghei	6.0
O=C(NC[C@H]1CC[C@]2(CC1)OOC1(O2)C2CC3CC(C2)CC1C3)c1cccc[n+]1[O-] (some centres unmarked) [OZ270]	ANKA strain of P. berghei	12.3
c1cc(CN2CCC3(CC2)OOC2(O3)C3CC4CC(C3)CC2C4)ccn1 (centres unmarked) [OZ216]	ANKA strain of P. berghei	7.7
c1ccc(CNC[C@H]2CC[C@]3(CC2)OO[C@]2(O3)C3CC4CC(C3)CC2C4)nc1 [OZ292]	ANKA strain of P. berghei	7.0
CC(C)(N)CNC[C@H]1CC[C@]2(CC1)OOC1(O2)C2CC3CC(C2)CC1C3 (some centres unmarked) [OZ287]	ANKA strain of P. berghei	8.3
CS(=O)(=O)c1ccc([C@H]2CC[C@]3(CC2)OOC2(O3)C3CC4CC(C3)CC2C4)cc1 (some centres unmarked) [OZ178]	ANKA strain of P. berghei	7.3
BrC[C@H]1CC[C@]2(CC1)OOC1(O2)C2CC3CC(C2)CC1C3 (some centres unmarked) [OZ123]	ANKA strain of P. berghei	7.0
OC1(c2nccs2)CCC2(CC1)OOC1(O2)C2CC3CC(C2)CC1C3 (centres unmarked) [OZ247]	ANKA strain of P. berghei	6.0
O=C(O)c1cn(C[C@H]2CC[C@]3(CC2)OOC2(O3)C3CC4CC(C3)CC2C4)cn1 (some centres unmarked) [OZ225]	ANKA strain of P. berghei	5.7
CN(C)C(=O)N[C@H]1CC[C@]2(CC1)OOC1(O2)C2CC3CC(C2)CC1C3 (some centres unmarked) [OZ187]	ANKA strain of P. berghei	10.0
COCC(=O)N(Cc1ccccc1)C1CCC2(CC1)OOC1(O2)C2CC3CC(C2)CC1C3 (centres unmarked) [OZ173]	ANKA strain of P. berghei	6.7

src = patent US6825230B2
